# System: SNB-78
# run.description: NCI tumour cell line growth inhibition, 48 h
Activity calls are given as the source filed them. No stated cut-off is given here; in the data, active = GI50 up to about 1.1 µM and inactive = higher.
reported.endpoint: GI50

compound="Nc1nc(SCCC/C=C/I)nc2c1ncn2C1OC(COP(=O)(O)O)C(O)C1O (stereo unspecified)" target_or_test_system=SNB-78 result="> 100 µM (inactive)"
compound=COc1ccc(CNc2cnc3ccc(N)cc3n2)cc1 target_or_test_system=SNB-78 result="82.8 µM (inactive)"
compound=COc1ccc2c(c1)[n+]([O-])c(C(=O)C/C(=N/NC(=O)c1ccccc1O)C(=O)Nc1ccc(Cl)c(C(F)(F)F)c1)c(C)[n+]2[O-] target_or_test_system=SNB-78 result="> 100 µM (inactive)"
compound="COC1/C=C\\C=C(/C)C(=O)Nc2cc3nc4ccc(Br)cc4oc-3c(c2=O)CC(C)CC(OC)C(O)C(C)/C=C(\\C)C1OC(N)=O (stereo unspecified)" target_or_test_system=SNB-78 result="0.998 µM (active)"
compound=CC(C)(C)[Si](Nc1ccccc1)(c1ccccc1)c1ccccc1 target_or_test_system=SNB-78 result="16.4 µM (inactive)"
compound=N=C(N)NS(=O)(=O)c1ccc(NC(=O)c2cccc3c(Nc4ccc(S(=O)(=O)N=C(N)N)cc4)c4ccccc4nc23)cc1 target_or_test_system=SNB-78 result="24.8 µM (inactive)"
compound=CCOC(=O)COc1ccc(OC)c2c1C(=O)CCC2 target_or_test_system=SNB-78 result="> 100 µM (inactive)"
compound=Cc1nc2nnnn2c2c1C(=O)Nc1ccccc1N2 target_or_test_system=SNB-78 result="> 100 µM (inactive)"
compound=CCCCCCCCC(=O)NCCCNCCCNC(=O)CCCCCCCC target_or_test_system=SNB-78 result="10.9 µM (inactive)"
compound=Cn1c(=O)c2c(nc3n2CCC(=O)N3)n(C)c1=O target_or_test_system=SNB-78 result="> 100 µM (inactive)"
compound=O=C1OCC/C1=N/O target_or_test_system=SNB-78 result="> 100 µM (inactive)"
compound="C#C[C@]1(O)CCC2C3CCc4cc(Oc5nc(F)nc(-n6c(C)nc7cc8ccccc8cc76)n5)ccc4C3CCC21C (stereo partly specified)" target_or_test_system=SNB-78 result="75.3 µM (inactive)"
compound="O=C1C=CC2(CCCCCCC2=O)CC1 (stereo unspecified)" target_or_test_system=SNB-78 result="> 100 µM (inactive)"
compound="Cc1cc(NC(=O)NC(=O)c2ccccc2NC(=O)C(C)N)ccc1Oc1ncc(Br)cn1 (stereo unspecified)" target_or_test_system=SNB-78 result="0.146 µM (active)"
compound="C/C1=C/C2OC(=O)C3(C)C2C(CC2(C)OC1=CC2=O)OC3(O)C(C)C (stereo unspecified)" target_or_test_system=SNB-78 result="35.2 µM (inactive)"
compound=Cn1cnc([N+](=O)[O-])c1Sc1n[nH]c(-c2ccc(Cl)cc2)n1 target_or_test_system=SNB-78 result="19.8 µM (inactive)"
compound=COc1cc(C[P+](c2ccccc2)(c2ccccc2)c2ccccc2)cc(OC)c1OC target_or_test_system=SNB-78 result="> 100 µM (inactive)"
compound="CCN(CC)CCC(=O)NC1c2ccccc2Oc2c(C)cccc21 (stereo unspecified)" target_or_test_system=SNB-78 result="> 100 µM (inactive)"
compound="Cc1ccc(NC(=O)C2C(=O)N(c3ccc(C)cc3)C(=O)/C2=N\\NC(N)=S)cc1 (stereo unspecified)" target_or_test_system=SNB-78 result="> 100 µM (inactive)"
compound="O=C1CCCCCCC2=C1C(Sc1ccccc1)CC2 (stereo unspecified)" target_or_test_system=SNB-78 result="> 100 µM (inactive)"
compound=CCN(CC)CCNc1ccc2ncn3c4cc(O)ccc4c(=O)c1c23 target_or_test_system=SNB-78 result="5.35 µM (inactive)"

# credit: ChEMBL document CHEMBL1201862
